This collection of values is drawn from PubChem BioAssay (NCI).

Answer each item with its documented TGI.
- System: RXF 393 renal
- TEST: NCI tumour cell line growth inhibition, 48 h
Respond with the bare value in µM.

Exercise: Determine from records and report TGI for "NCCCn1c2c(c3ccc([N+](=O)[O-])cc3c1=O)C(=O)c1ccccc1-2"
Solution: 2.1

Exercise: In one line, give reported TGI of the entry COc1cc2c3c(c1OC)-c1cc4c(cc1CC3(C#N)N(C(=O)c1ccccc1)CC2)OCO4 (stereo not drawn) .
Solution: 26.9

Exercise: Determine its reported TGI: "CC1CCN(C(=O)OCc2nc3nc(Cl)nc(N4CCOCC4)c3[nH]2)CC1"
Solution: 2

Exercise: Write down TGI measured for item "CCOC(=O)Cc1ccc(Nc2nc3ccccc3nc2C(=O)OCC)cc1"
Solution: 74.4

Exercise: Give the reported TGI for this molecule. "Cc1ccc(Cl)c2c(=O)c3ccc(N)cc3sc12"
Solution: 59.3

Exercise: Answer with the recorded TGI for the molecule listed here: "COC(=O)NC(C(F)(F)F)(C(F)(F)F)P1(=O)OCCCO1"
Solution: 15

Exercise: For "C=CN1C(=O)[C@H](Oc2ccccc2)[C@@H]1c1ccccc1" , write its TGI.
Solution: 52.5

Exercise: Report measured TGI; entry is "CC1=C(CO)C2=C(C)C3(CC3)[C@@](C)(O)C(=O)C2=C1"
Solution: 0.159

Exercise: Look up and report measured TGI for this entry: "C=COC(=O)N[C@H]1CCc2cc(OC)c(OC)c(OC)c2-c2ccc(SC)c(=O)cc21"
Solution: 3.14
